- Test system: COLO 205 colon
- Test: NCI tumour cell line growth inhibition, 48 h; in the data active = GI50 below about 0.43 µM; inactive = the rest
Where a SMILES comes first, the peptide text is derived from it. [ ]: non-standard residue; d: D form. NMeY = CN[C@@H](Cc1ccc(O)cc1)C(=O)O; dNMeF = CN[C@H](Cc1ccccc1)C(=O)O; Sar = CNCC(=O)O
Possible outcomes: active, inactive

• CC(=O)OC1CCC2(C)C(CCC3C4CC=C(C(C)=O)C4(C)OC(=O)CC32)C1 (configuration not stated) = inactive
• Fc1ccc(-c2nnc3sc(COc4ccccc4Cl)nn23)cc1Cl = inactive
• C#C[C@@]1(O)[C@@H](CO)O[C@@H](n2ccc3c(N)ncnc32)[C@@H]1O = inactive
• COc1cc2nc(N3CCCC3)nc(Nc3ccccc3)c2cc1OC = inactive
• COc1ccc2c(c1)sc1nc(-c3ccccc3)c(-c3ccc(O)c(OC)c3)n12 = inactive
• CC[C@H](C)[C@@H]1NC(=O)[C@H](Cc2ccc(O)cc2)N(C)C(=O)[C@H](Cc2ccccc2)NC(=O)CN(C)C(=O)[C@@H]2CCCN2C(=O)[C@@H](Cc2ccccc2)N(C)C(=O)[C@H](CC(C)C)NC1=O (cyclo(F[NMeY]IL[dNMeF]P[Sar])) = active
• O=C(Nc1ccccc1)NS(=O)(=O)c1ccc(N2N=C3c4ccccc4CC3C2c2ccccn2)cc1 (configuration not stated) = inactive
• COc1ccc2[nH]c(=O)c(/C=C/C(=O)/C=C/c3ccc(O)c(OC)c3)cc2c1 = inactive
• Cc1cc2c3ccccc3ccc2[n+]2ccccc12 = inactive
• C=CC(=O)N1CCC([C@@H]2CCNc3c(C(N)=O)c(-c4ccc(Oc5ccccc5)cc4)nn32)CC1 = inactive
• Nc1ccn(C2CC(O)C(CO)O2)c(=O)n1 (configuration not stated) = inactive
• COc1cc2c(c(OC)c1OC)-c1ccc(SC)c(=O)cc1[C@@H](NCc1cccc(C#N)c1)CC2 = active
• COc1cccc(-n2ncc3c(N/N=C/c4ccc(S(C)(=O)=O)cc4)ncnc32)c1 = inactive
• CNNC(=N\S(=O)(=O)c1cc(C(=O)Nc2ccc(Cl)cc2)c(Cl)cc1SCc1ccccc1)/N=C/c1ccc([N+](=O)[O-])s1 = inactive
• CN1CCN(Cc2ccc(NC(=O)c3nc4ccc5[nH]ncc5c4c4c3CCC4)cc2C(F)(F)F)CC1 = inactive
• CO/N=C(/COc1c(-c2ccccc2)oc2ccccc2c1=O)c1ccc(OC)cc1 = inactive
• CC1(C)CC(OCCCC[P+](c2ccccc2)(c2ccccc2)c2ccccc2)CC(C)(C)N1O = active

====

In this section we review reported TGI values for a set of molecules.
- Tested on: M14 melanoma
- Test: NCI tumour cell line growth inhibition, 48 h
Metric: TGI

- CC(=O)c1nc2ccccc2n1CC(=O)c1ccc(Cl)cc1: > 100 µM
- COc1cc2c(cc1OC)C1CCc3ccccc3CN1CC2 (stereo unspecified): > 100 µM
- COc1ccc(OC)c(C#Cc2ccc(OC)c(C(=O)NCCc3ccc(F)cc3)c2)c1: > 100 µM
- COc1ccc(-c2cc(-c3cn[nH]c3-c3ccccn3)ccn2)cc1: > 25 µM
- CCCCCCCCCCCCCCCCOCC(COP(=O)([O-])OCC[n+]1ccc(N(C)C)cc1)OCC (stereo unspecified): 26.7 µM
- CCC1(C(=O)OC)CCc2c(OC)ccc(OC)c2C1=O (stereo unspecified): > 100 µM

====

- Test system: TK-10 renal
- Test: NCI tumour cell line growth inhibition, 48 h
Metric: TGI

* S=C(N/N=C(/c1ccccc1)c1ccccn1)Nc1ccc(Cl)cc1 | 8.3 µM
* C[n+]1ccc(-c2cc[n+](C)cc2)cc1 | > 100 µM
* NCCCCN(CCCN)Cc1ccccc1 | > 100 µM
* C=CC(=O)N1CCC([C@@H]2CCNc3c(C(N)=O)c(-c4ccc(Oc5ccccc5)cc4)nn32)CC1 | 7.77 µM
* Cc1ccc(NC(=O)CC/C(CC(=O)c2ccc(F)cc2)=N\NC(=O)C(=O)NN)cc1C | > 100 µM
* O=Cc1ccc(Oc2c3ccccc3nc3occc23)cc1 | 21 µM

====

- Tested on: DMS 114 small cell lung
- Test: NCI tumour cell line growth inhibition, 48 h
In this section we review reported TGI values for a set of compounds.
Metric: TGI

* COc1cc([C@@H]2c3cc4c(cc3[C@@H](NCc3ccccc3)C3COC(=O)[C@@H]32)OCO4)cc(OC)c1O (some centres undefined) | > 64.5 µM
* CCCCCCCCCC1C(C)c2c([nH]c3ccccc23)C2C(=O)N(c3ccccc3)C(=O)C21 (centres undefined) | 28.4 µM
* CCOC(=O)C(Cc1ccccc1)NC(=O)OC(C)(C)C (centres undefined) | > 100 µM
* Cc1ccc(NC(=O)CC/C(CC(=O)c2ccc(F)cc2)=N\NC(=O)C(=O)NN)cc1C | > 100 µM

====

- Tested on: SF-539 CNS
- Test: NCI tumour cell line growth inhibition, 48 h; in the data active = GI50 below about 0.43 µM; inactive = the rest
Where a SMILES comes first, the peptide text is derived from it. [ ]: non-standard residue; d: D form. NMeY = CN[C@@H](Cc1ccc(O)cc1)C(=O)O; dNMeF = CN[C@H](Cc1ccccc1)C(=O)O; Sar = CNCC(=O)O
Possible outcomes: active, inactive

• O=c1oc2ccc(Cl)cc2c(=O)n1-c1cc(C(F)(F)F)cc(C(F)(F)F)c1 = active
• C#C[C@@]1(O)[C@@H](CO)O[C@@H](n2ccc3c(N)ncnc32)[C@@H]1O = inactive
• O=C(OCC1OC(OC(=O)c2cc(O)c(O)c(OC(=O)c3cc(O)c(O)c(O)c3)c2)C(OC(=O)c2cc(O)c(O)c(OC(=O)c3cc(O)c(O)c(O)c3)c2)C(OC(=O)c2cc(O)c(O)c(OC(=O)c3cc(O)c(O)c(O)c3)c2)C1OC(=O)c1cc(O)c(O)c(OC(=O)c2cc(O)c(O)c(O)c2)c1)c1cc(O)c(O)c(OC(=O)c2cc(O)c(O)c(O)c2)c1 (stereo not given) = inactive
• CC[C@H](C)[C@@H]1NC(=O)[C@H](Cc2ccc(O)cc2)N(C)C(=O)[C@H](Cc2ccccc2)NC(=O)CN(C)C(=O)[C@@H]2CCCN2C(=O)[C@@H](Cc2ccccc2)N(C)C(=O)[C@H](CC(C)C)NC1=O (cyclo(F[NMeY]IL[dNMeF]P[Sar])) = active
• CCOC(=O)c1ccc(Nc2sc(C(=O)c3cccc([N+](=O)[O-])c3)c(N)c2C#N)cc1 = active

====

- System: SR leukemia
- Test: NCI tumour cell line growth inhibition, 48 h
Where a SMILES comes first, the peptide text is derived from it. [ ]: non-standard residue; d: D form. NMeY = CN[C@@H](Cc1ccc(O)cc1)C(=O)O; dNMeF = CN[C@H](Cc1ccccc1)C(=O)O; Sar = CNCC(=O)O
In this section we review reported TGI values for a set of compounds.
Metric: TGI

* COc1ccc2oc(=O)c3c(c2c1C)OC(C)(C)C=C3 | > 100 µM
* COc1ccc(C2CC(c3ccc4ccccc4c3O)=NN2C(C)=O)cc1OC (stereo unspecified) | > 100 µM
* C[n+]1ccc(-c2cc[n+](C)cc2)cc1 | > 31.6 µM
* CCN(CC)CCOC(=O)CCN1CC2CCC(CC2)C1 | > 100 µM
* O=C(Cc1ccccc1)NNc1nc(NNC(=O)c2ccncc2)nc(Nc2ccccc2)n1 | > 10 µM
* CC[C@H](C)[C@@H]1NC(=O)[C@H](Cc2ccc(O)cc2)N(C)C(=O)[C@H](Cc2ccccc2)NC(=O)CN(C)C(=O)[C@@H]2CCCN2C(=O)[C@@H](Cc2ccccc2)N(C)C(=O)[C@H](CC(C)C)NC1=O (cyclo(F[NMeY]IL[dNMeF]P[Sar])) | 6.28 µM
* C=CC(=O)N1CCC([C@@H]2CCNc3c(C(N)=O)c(-c4ccc(Oc5ccccc5)cc4)nn32)CC1 | > 100 µM
* ICCC(c1ccccc1)(c1ccccc1)c1ccccc1 | 5 µM
* Nc1ccc2cc3[nH]c4cc(N)ccc4c3nc2c1 | 0.66 µM
* COc1cc2c(cc1OC)C1CCc3ccccc3CN1CC2 (stereo unspecified) | > 100 µM
* Cc1ccsc1C(=O)C(CC(=O)c1cccs1)c1ccsc1 (stereo unspecified) | > 100 µM
* Cc1nc(-c2cc3c(ccc4ccccc43)oc2=O)cc2c1c(=O)oc1ccc3ccccc3c12 | > 100 µM
* Nc1nc(N)c(N=O)c(Nc2ccc(I)cc2)n1 | 76.1 µM
* Cc1cc(S(=O)(=O)n2ccnc2Oc2ccccc2)c(SSc2cc(Cl)c(C)cc2S(=O)(=O)n2ccnc2Oc2ccccc2)cc1Cl | > 100 µM
* CC(=O)OC1CCC2(C)C(CCC3C4CC=C(C(C)=O)C4(C)OC(=O)CC32)C1 (stereo unspecified) | 18.2 µM
* COc1ccc(C2CC(=O)CC(c3ccc(OC)cc3)C23C(=O)NC(=S)NC3=O)cc1 (stereo unspecified) | > 100 µM
* CC(=O)c1nc2ccccc2n1CC(=O)c1ccc(Cl)cc1 | > 100 µM
* Fc1ccc(-c2nnc3sc(COc4ccccc4Cl)nn23)cc1Cl | 76.4 µM
* CN(C)c1nc(=NCc2cccs2)ss1 | > 4.9 µM
* O=C1Nc2cc([N+](=O)[O-])ccc2C(=O)N2CCC[C@@H]12 | > 100 µM
* COc1cc2ccnc3c2c(c1OC)-c1ccc(=O)ccc1-3 | 21.4 µM
* COc1ccccc1N1C(=O)CS(=O)(=O)C1c1cccc(Oc2ccccc2)c1 (stereo unspecified) | 28.2 µM
* COC(=O)c1ccc2c(c1)C(=O)c1c-2n(CCCN)c(=O)c2cc([N+](=O)[O-])ccc12 | 0.367 µM
* COc1ccc2c(c1)CC[C@@H]1[C@@H]2CC[C@]2(C)C(=O)/C(=C/c3ccncc3)C[C@@H]12 | > 100 µM
* S=C=NCc1ccccc1 | 12.1 µM
* O=C1c2cscc2C(=O)C1(O)O | 49.3 µM
* Cc1cc2c(cc1C)C(=O)C1(C2)Cc2c(ccc(C)c2C)C1=O (stereo unspecified) | > 100 µM
* CCCNC(C#N)c1ccc(OCCCCCCCCCCOc2ccc(C(C#N)NCCC)cc2)cc1 (stereo unspecified) | 61.3 µM
* CC(C)[Si](OC1=C(C(=O)N(C)c2ccccc2Cl)CCCC1)(C(C)C)C(C)C | 24.1 µM
* Nc1c(C(=O)c2cccc(CCC3(O)CCCC3)c2)cnn1-c1ccc(F)cc1 | > 25 µM
* CC1(O)CC2(O)C=CC3=C(C(=O)c4cccc(O)c4C3=O)C2(O)C(=O)C1O (stereo unspecified) | 18.1 µM
* CNNC(=N\S(=O)(=O)c1cc(C(=O)Nc2ccc(Cl)cc2)c(Cl)cc1SCc1ccccc1)/N=C/c1ccc([N+](=O)[O-])s1 | > 100 µM
* O=C1C[C@@H](Sc2ccccc2)C2(OCCO2)[C@H]2ON3CCC[C@@H]3[C@@H]12 | 10.4 µM
* Nc1ccn(C2CC(O)C(CO)O2)c(=O)n1 (stereo unspecified) | > 5000 µM
* Nc1nc(Cl)cc(NCC2(CO)CCC(O)C2)n1 (stereo unspecified) | > 100 µM
* O=C(O)c1nc2ccccc2nc1Nc1ccc(F)cc1 | 91.1 µM
* O=C1CSC(c2ccc(Cl)cc2)N1c1ccc(-c2ccc(-n3c(-c4ccccc4)nc4ccccc4c3=O)cc2)cc1 (stereo unspecified) | > 100 µM
* COc1cc(S(=O)(=O)Nc2nc(-c3ccc(N)cc3)cs2)ccc1Cl | > 100 µM
* CN(C)CCNC(=O)Cn1ccc(=O)c2ccc([N+](=O)[O-])cc21 | > 100 µM
* CC(C)c1c(O[Si](C(C)C)(C(C)C)C(C)C)c2c3c(ccc4c3c1OC4(C)C)C(C)CC2 (stereo unspecified) | > 100 µM
* Cc1cc(C)n(-c2nc3ccccc3c(=O)n2-c2ccccc2)n1 | > 100 µM
